The values you see were collected from patent US20060074243A1.

Some compounds, each annotated with its measured pKi.
- tested on: Human recombinant MMP-13 (Homo sapiens)
- Construct: made in house; host or cells: baculovirus / insect cells
- assay details: In vitro MMP inhibition analysis (fluorogenic peptide substrate cleavage), Ki
- Assay type: biochemical
- experimental setup: Table 1
Quick note: pKi means taking -log10 of the concentration in moles per liter.

The following compounds have reported results that may help.
Input "CC(F)(F)CCc1ccc(-c2ccc(S(=O)(=O)C3(C(=O)NO)CCN(C4CC4)CC3)cc2)cc1" , output reported pKi. 10.30

Output measured pKi for this item: "COCCN1CCC(C(=O)NO)(S(=O)(=O)c2ccc(-c3ccc(CCC(C)(F)F)cc3)cc2)CC1" 11.00

Look up and state reported pKi for "O=C(NO)C1(S(=O)(=O)c2ccc(-c3cnc(CCC(F)(F)F)cn3)cc2)CCOCC1" 9.35

Could you please provide reported pKi for "COCCN1CCC(C(=O)NO)(S(=O)(=O)c2ccc(-c3ccc(CCCC(F)(F)F)cc3)cc2)CC1" ? Thanks! 10.22

Specify reported pKi for the compound shown: "CC(F)(F)CCc1cnc(-c2ccc(S(=O)(=O)C3(C(=O)NO)CCOCC3)cc2)cn1" 9.67

Note pKi for the compound shown: "O=C(NO)C1(S(=O)(=O)c2ccc(-c3ccc(CCC(F)(F)C(F)(F)F)cn3)cc2)CCOCC1" 10.39

Answer with the recorded pKi of "CCN1CCC(C(=O)NO)(S(=O)(=O)c2ccc(-c3cnc(CCC(C)(F)F)cn3)cc2)CC1" only. 9.53

Consider the compound "CCOCCOc1ccc(-c2ccc(S(=O)(=O)C3(C(=O)NO)CCOCC3)cc2)cc1" and give its recorded pKi. 10.55

***
Please list pKi recorded for the compound "CCN1CCC(C(=O)NO)(S(=O)(=O)c2ccc(-c3ccc(CCC(C)(F)F)cc3)cc2)CC1" 10.70

// Input: "O=C(NO)C1(S(=O)(=O)c2ccc(-c3ccc(CCC(F)(F)C(F)(F)F)cc3)cc2)CCOCC1" . Output its pKi only. 9.65

* * *

Catalogue of Ki values
- tested on: Human recombinant MMP-1 (Homo sapiens, UniProt P03956)
- Construct: made in house; host or cells: MMP-1-transfected HT-1080 cells (spent media)
- Sequence (P03956 100-469): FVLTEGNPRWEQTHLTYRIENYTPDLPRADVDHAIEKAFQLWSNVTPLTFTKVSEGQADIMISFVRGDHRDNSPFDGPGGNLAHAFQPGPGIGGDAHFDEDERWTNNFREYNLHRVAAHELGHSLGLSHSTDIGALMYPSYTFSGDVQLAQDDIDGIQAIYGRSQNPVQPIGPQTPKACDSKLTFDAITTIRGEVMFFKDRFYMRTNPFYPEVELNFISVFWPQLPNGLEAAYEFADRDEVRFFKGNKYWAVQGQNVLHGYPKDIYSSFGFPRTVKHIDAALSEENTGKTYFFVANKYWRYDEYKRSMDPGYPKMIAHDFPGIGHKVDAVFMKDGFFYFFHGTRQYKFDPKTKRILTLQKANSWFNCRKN
- assay details: In vitro MMP inhibition analysis (fluorogenic peptide substrate cleavage), Ki
- Format: biochemical
- experimental setup: Table 2
- Method: Several compounds and salts were analyzed in an in vitro assay to determine their ability to inhibit the MMP cleavage of peptide substrates. Inhibition constant (Ki) were calculated from the assayed compound-MMP interactions. […] The assays from which the Ki determinations were made were performed as follows. […] In the absence of MMP inhibitory activity, substrate (I) was cleaved at the Gly-Leu bond resulting in an increase of relative fluorescence. […]
Give the value in nM but do not write nM after it.

Here are 2 compounds together with their reported answers.
Report its Ki with Human recombinant MMP-1 (Homo sapiens, UniProt P03956) as the test system: "O=C(NO)C1(S(=O)(=O)c2ccc(-c3cnc(OCC(F)(F)C(F)(F)F)cn3)cc2)CCOCC1" 1840

Please indicate recorded Ki of "CC(C)CNC(=O)c1cnc(-c2ccc(S(=O)(=O)C3(C(=O)NO)CCOCC3)cc2)cn1" measured with Human recombinant MMP-1 (Homo sapiens, UniProt P03956). 1100

Further cases:
Report Ki from Human recombinant MMP-1 (Homo sapiens, UniProt P03956) testing of "CC(C)CC#Cc1cnc(-c2ccc(S(=O)(=O)C3(C(=O)NO)CCOCC3)cc2)cn1" 1660

For Human recombinant MMP-1 (Homo sapiens, UniProt P03956), give Ki of the listed compound: "COCCN1CCC(C(=O)NO)(S(=O)(=O)c2ccc(-c3ccc(-c4ccccc4)cc3)cc2)CC1" 842

# assay system Human recombinant MMP-1 (Homo sapiens, UniProt P03956): give Ki of "CCCCOc1ccc(-c2ccc(S(=O)(=O)C3(C(=O)NO)CCOCC3)cc2)cc1" 1290

Tell me Ki of "CCCCc1ccc(-c2ccc(S(=O)(=O)C3(C(=O)NO)CCOCC3)cc2)nc1" when tested on Human recombinant MMP-1 (Homo sapiens, UniProt P03956). 2260

State the measured Ki (Human recombinant MMP-1 (Homo sapiens, UniProt P03956)) of "CCCCOc1cnc(-c2ccc(S(=O)(=O)C3(C(=O)NO)CCOCC3)cc2)cn1" 1740

Please tell me the measured Ki for "COC/C(Cl)=C/c1cnc(-c2ccc(S(=O)(=O)C3(C(=O)NO)CCOCC3)cc2)cn1" ; system: Human recombinant MMP-1 (Homo sapiens, UniProt P03956). 8950

// fetch Ki for "O=C(NO)C1(S(=O)(=O)c2ccc(-c3cnc(OCC(F)(F)C(F)(F)F)cn3)cc2)CCN(C2CC2)CC1" ; system: Human recombinant MMP-1 (Homo sapiens, UniProt P03956) 7470

Give measured Ki for "O=C(NO)C1(S(=O)(=O)c2ccc(-c3noc(-c4ccc(F)cc4)n3)cc2)CCOCC1" (Human recombinant MMP-1 (Homo sapiens, UniProt P03956)). 5910

* * *

- tested on: Human recombinant MMP-9 (Homo sapiens)
- Construct: made in house; host or cells: MMP-9-transfected HT1080 cells (spent media)
- assay details: In vitro MMP inhibition analysis (fluorogenic peptide substrate cleavage), Ki
- Type: biochemical
- experimental setup: Table 1
reported property: pKi
Recall that pKi is obtained by taking minus log10 of the concentration measured in molar.

Indicate its recorded pKi; the compound in question is COCCN1CCC(C(=O)NO)(S(=O)(=O)c2ccc(-c3ccc(CCC(C)(F)F)cn3)cc2)CC1 [Example 67] 9.72

Given CCN1CCC(C(=O)NO)(S(=O)(=O)c2ccc(-c3ccc(CCC(C)(F)F)cc3)cc2)CC1 [Example 61] , respond with its pKi. 9.59

Input O=C(NO)C1(S(=O)(=O)c2ccc(-c3ccc(CCCC(F)(F)F)cn3)cc2)CCOCC1 [Example 69] , output reported pKi. 9.14

Return the recorded pKi value; entry: COCCN1CCC(C(=O)NO)(S(=O)(=O)c2ccc(-c3ccc(OC(F)(F)C(F)F)cc3)cc2)CC1 [Example 39] 10.35

Please indicate pKi recorded for O=C(NO)C1(S(=O)(=O)c2ccc(-c3ccc(OC(F)(F)C(F)F)cc3)cc2)CCOCC1 [Example 68] 9.85

Look up pKi of CC(F)(F)CCc1ccc(-c2ccc(S(=O)(=O)C3(C(=O)NO)CCN(C4CC4)CC3)cc2)cc1 [Example 59] and report it. 9.80

Using the record for COCCN1CCC(C(=O)NO)(S(=O)(=O)c2ccc(-c3ccc(CCCC(F)(F)F)cc3)cc2)CC1 [Example 43] , state its measured pKi. 9.37

Answer with the recorded pKi for the compound listed here: O=C(NO)C1(S(=O)(=O)c2ccc(-c3ccc(CCC(F)(F)C(F)(F)F)cn3)cc2)CCN(C2CC2)CC1 [Example 50] 9.66

New cases:
Write down pKi measured for item O=C(NO)C1(S(=O)(=O)c2ccc(-c3ccc(CCCC(F)F)cc3)cc2)CCOCC1 [Example 57] 9.42

// Input: O=C(NO)C1(S(=O)(=O)c2ccc(-c3ccc(CCCC(F)(F)F)cn3)cc2)CCN(C2CC2)CC1 [Example 51] . Output its pKi only. 9.66

Return reported pKi. Input compound: CCOCCOc1ccc(-c2ccc(S(=O)(=O)C3(C(=O)NO)CCOCC3)cc2)cc1 [Example 37] 8.45

# return recorded pKi for input CCN1CCC(C(=O)NO)(S(=O)(=O)c2ccc(-c3ccc(CCC(F)(F)C(F)(F)F)cn3)cc2)CC1 [Example 52] 9.24

Supply recorded pKi for COCCC(C(=O)NO)S(=O)(=O)c1ccc(-c2ccc(CCCC(F)(F)F)cc2)cc1 (stereo not shown) [Example 47] here. 8.55

* * *

// reported Ki for each item listed
- tested on: Human recombinant MMP-1 (Homo sapiens)
- Construct: made in house; host or cells: MMP-1-transfected HT-1080 cells (spent media)
- assay details: In vitro MMP inhibition analysis (fluorogenic peptide substrate cleavage), Ki
- Assay type: biochemical
- experimental setup: Table 2
Just the number in µM, nothing appended.

// fetch Ki; item: O=C(NO)C1(S(=O)(=O)c2ccc(-c3ncccn3)cc2)CCOCC1 [Example 121] ; system: Human recombinant MMP-1 (Homo sapiens) 1.6

Give the observed Ki of CCN1CCC(C(=O)NO)(S(=O)(=O)c2ccc(-c3ccc(-c4ccncc4)cc3)cc2)CC1 [Example 136] for Human recombinant MMP-1 (Homo sapiens). 1.07

Now take the following molecule into account.
Provide Ki, tested on Human recombinant MMP-1 (Homo sapiens), for O=C(NO)C1(S(=O)(=O)c2ccc(-c3cnc(OCCC4CC4)cn3)cc2)CCOCC1 [Example 172] . 1.36

* * *

- tested on: Human recombinant MMP-9 (Homo sapiens, UniProt P14780)
- Construct: made in house; host or cells: MMP-9-transfected HT1080 cells (spent media)
- Sequence (P14780 107-707 limits assumed): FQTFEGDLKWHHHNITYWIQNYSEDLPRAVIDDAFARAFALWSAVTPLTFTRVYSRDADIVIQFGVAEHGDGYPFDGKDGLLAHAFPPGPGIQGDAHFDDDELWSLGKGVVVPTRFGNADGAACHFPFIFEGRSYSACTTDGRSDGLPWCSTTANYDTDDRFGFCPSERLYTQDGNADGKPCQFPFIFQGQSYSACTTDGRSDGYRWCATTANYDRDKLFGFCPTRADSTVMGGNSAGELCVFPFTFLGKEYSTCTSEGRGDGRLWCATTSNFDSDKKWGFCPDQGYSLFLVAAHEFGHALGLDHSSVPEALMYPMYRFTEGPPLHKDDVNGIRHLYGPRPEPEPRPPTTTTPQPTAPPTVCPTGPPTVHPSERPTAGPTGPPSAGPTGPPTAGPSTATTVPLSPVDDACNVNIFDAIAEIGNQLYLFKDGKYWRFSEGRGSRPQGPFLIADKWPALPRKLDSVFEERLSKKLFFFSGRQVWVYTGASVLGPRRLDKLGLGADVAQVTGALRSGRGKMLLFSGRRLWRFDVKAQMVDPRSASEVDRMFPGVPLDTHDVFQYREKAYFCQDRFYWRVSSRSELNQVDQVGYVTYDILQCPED
- assay details: In vitro MMP inhibition analysis (fluorogenic peptide substrate cleavage), Ki
- Type: biochemical
- experimental setup: Table 2
reported property: pKi
# pKi: negative log10 of molar concentration; output just the value

Completed entries (count: 4):
State its pKi: "O=C(NO)C1(S(=O)(=O)c2ccc(-c3cnc(C4CCCC4)cn3)cc2)CCOCC1" 7.47

Specify pKi for "CCCCOc1ccc(-c2ccc(S(=O)(=O)C3(C(=O)NO)CCOCC3)cc2)cc1C(F)(F)F" and stop. 6.88

Return pKi for the following molecule: "O=C(NO)C1(S(=O)(=O)c2ccc(-c3cnc(OCC(F)(F)C(F)(F)F)cn3)cc2)CCOCC1" 9.47

Give the reported value of pKi for this record: "O=C(N1CCCCC1)N1CCC(C(=O)NO)(S(=O)(=O)c2ccc(-c3ccc(CCC(F)(F)C(F)(F)F)cc3)cc2)CC1" 8.87

New cases:
Provide measured pKi value, entry: "O=C(NO)C1(S(=O)(=O)c2ccc(-c3noc(-c4ccc(F)cc4)n3)cc2)CCOCC1" 8.28

Specify reported pKi for the molecule shown: "CC(C)Cc1ccc(-c2ccc(S(=O)(=O)C3(C(=O)NO)CCOCC3)cc2)nc1" 8.86
